Quick reference: melting point of the listed items.

>  <compound>
C=CCN1C(C)(C)CC(OC(=O)CCC(C)(c2ccc(O)c(C(C)(C)C)c2)c2ccc(O)c(C(C)(C)C)c2)CC1(C)C

>  <observed.measurement>
197 °C

$$$$
>  <compound>
Cc1cccc(C)c1NC(=O)CN1C(=O)C2(COc3cc4c(cc32)CCO4)c2ccccc21 (centres undefined)

>  <observed.measurement>
261 to 262 °C

$$$$
>  <compound>
Nc1ccc(Cl)nc1I

>  <observed.measurement>
148 °C

$$$$
>  <compound>
O=C(/C=C/c1ccc(C(=O)Nc2cccc(Nc3nc(-c4cccnc4)cs3)c2)cc1)NO

>  <observed.measurement>
101 °C

$$$$

query: Would you kindly share the measured melting point for CCCCc1nc2ncccc2n1Cc1ccc(-c2ccccc2C(=O)O)cc1 ?
result: 170 °C

query: Would you kindly share the measured melting point for COc1ccc(-c2cc(N3CCCCC3)c(C#N)c3c2-c2ccccc2C3=O)cc1 ?
result: 210 to 212 °C

query: Would you kindly share the measured melting point for Cc1ccc(S(=O)(=O)OCC2COc3ccc([N+](=O)[O-])c(C=CC#N)c3O2)cc1 (centres undefined) ?
result: 117 to 118 °C

query: Would you kindly share the measured melting point for Cn1c(Cc2cccc(C(F)(F)F)c2)nc2c(-c3cccc(C(=O)O)c3)cccc21 ?
result: 175 to 177 °C

query: Would you kindly share the measured melting point for O=C(OC1CNC(=N[N+](=O)[O-])NC1)C1(C2CCCCC2)CCCCC1 (centres undefined) ?
result: 196 to 197 °C

query: Would you kindly share the measured melting point for CCc1ncc2n1N=C(c1ccc([N+](=O)[O-])cc1)c1cc3c(cc1C2)OCO3 ?
result: 243 to 245 °C

query: Would you kindly share the measured melting point for Cc1noc(NC(=O)N2CCN(c3ccnc(-c4ccc(F)cc4F)n3)CC2)c1C ?
result: 207 to 208 °C

query: Would you kindly share the measured melting point for Cc1cc(C)nc(NC(=O)Cc2cc(Br)sc2Br)c1 ?
result: 109 °C

query: Would you kindly share the measured melting point for Cc1ccc(C(=O)c2ccc3nc(Cl)nc(-c4cccc(Cl)c4)c3c2)cc1 ?
result: 156 °C

query: Would you kindly share the measured melting point for Nc1ccc(-c2cc3ccccn3c2C(=O)CCC(=O)O)cc1 ?
result: 86 to 88 °C

query: Would you kindly share the measured melting point for CCCOCC1(C)CCCOc2cc(/C=C/c3ccc(C(=O)O)cc3)ccc21 (centres undefined) ?
result: 164 to 165 °C

query: Would you kindly share the measured melting point for Nc1nc(N)c2c(Sc3ccccc3)cccc2n1 ?
result: 195 to 197 °C

query: Would you kindly share the measured melting point for CC(CC(=O)NC(=O)OC(C)(C)C)Nc1ccc(Cl)cc1 (centres undefined) ?
result: 114 to 115 °C

query: Would you kindly share the measured melting point for CCn1cc(C(=O)O)c(=O)c2cnc(N3CCN(C(C)=O)CC3)nc21 ?
result: 298 to 300 °C

query: Would you kindly share the measured melting point for CCOC(=O)c1cn(C2CC2)c2nc3cc(Cl)c(F)cc3cc2c1=O ?
result: 256 °C

These data points were gathered from a melting point compilation (Tetko et al.; mined from patent text by program, amines drawn as free bases though some values may be those of a salt).
